# melting point values compiled below

Ask | Any idea what its melting point is? The compound is O=C(CN1CCN(C(c2ccccc2)c2ccc(Cl)cc2)CC1)Nc1ncc([N+](=O)[O-])s1 (stereo not shown)
Reply | 92 to 95 °C

Ask | // repeat for `COc1ccc(N2CCN(CC(=O)Nc3ncc([N+](=O)[O-])s3)CC2)cc1` and report
Reply | 154 to 156 °C (dec.)

###

- System: T. b. brucei wild type
- experiment notes: T. brucei brucei antiproliferating assay, wild type bloodstream form
- Assay type: cell-based
- condition notes: Trypanosoma brucei, 72 h, read-out: IC50 value T.b. brucei Wild type, BSF, wild type, 3 days
property name: IC50 (nM)
Write the value in nM as a bare number.

Consider the reported IC50 for these compounds:
O=C(COc1ccc(-c2ccccc2)cc1)Nc1ncc([N+](=O)[O-])s1; 3750
O=C(CN1CCN(c2ccc(Cl)c(Cl)c2)CC1)Nc1ncc([N+](=O)[O-])s1; 1360

Ask | Any idea what its IC50 is? The compound is O=C(CN1CCN(C(c2ccccc2)c2ccc(Cl)cc2)CC1)Nc1ncc([N+](=O)[O-])s1 (centres unmarked)
Reply | 1470

Ask | // repeat for `O=C(Nc1ncc([N+](=O)[O-])s1)c1ccc(-c2ccccc2)cc1` and report
Reply | 1610

Ask | // repeat for `O=C(CN1CCN(c2ccc(C(F)(F)F)cc2)CC1)Nc1ncc([N+](=O)[O-])s1` and report
Reply | 1020

###

# melting point values compiled below

Consider the reported melting point for these compounds:
O=C(COc1cccc(Oc2ccccc2)c1)Nc1ncc([N+](=O)[O-])s1 [Compound 10]; 151 to 153 °C
O=C(COc1ccc(-c2ccccc2)cc1)Nc1ncc([N+](=O)[O-])s1 [Compound 11]; 196 to 198 °C
O=C(CN1CCN(c2ccc(Cl)c(Cl)c2)CC1)Nc1ncc([N+](=O)[O-])s1 [Compound 5]; 169 to 171 °C

Ask | Any idea what its melting point is? The compound is O=C(COc1cccc(-c2ccccc2)c1)Nc1ncc([N+](=O)[O-])s1 [Compound 9]
Reply | 148 to 150 °C

Ask | // repeat for O=C(CN1CCN(c2ccccn2)CC1)Nc1ncc([N+](=O)[O-])s1 [Compound 7] and report
Reply | 175 to 180 °C (dec.)

Ask | // repeat for O=C(Nc1ncc([N+](=O)[O-])s1)c1ccc(-c2ccccc2)cc1 [Compound 8] and report
Reply | > 230 °C

Ask | // repeat for Cc1ccc(N2CCN(CC(=O)Nc3ncc([N+](=O)[O-])s3)CC2)cc1 [Compound 2] and report
Reply | 160 to 161 °C (dec.)

Ask | // repeat for O=C(CN1CCN(c2ccc(C(F)(F)F)cc2)CC1)Nc1ncc([N+](=O)[O-])s1 [Compound 3] and report
Reply | 173 to 175 °C

Measured values drawn from paper PMC4876673 for this set.
